# SYSTEM: Recombinant soluble trimeric human BAFF (furin-cleaved human BAFF 134-285) (human, UniProt Q9Y275 134-285)
# EXPERIMENTAL_PROTOCOL: cell-based or functional assay
For each entry below, report its Soluble trimeric huBAFF (50 pM) Neutralization IC90 value.
API: value field is a number in pM; no unit string.

# return recorded Soluble trimeric huBAFF (50 pM) Neutralization IC90 for entry 381A6A9 (antibody, V domains shown) VH: QVQLQQSGPELVKPGGSVKISCKAAGYSLTSYYIHWVKQRPGQGLEWIGLIFPGSGNSKYIEKFKGKATLTADTSSNTAYMQLSSLTSEDSAVYYCTRGDFGNYLAYWYFDVWGTGTTVTVSS VL: DIKMTQSPSSIYASLGERVTITCKASQDINSYLSWFQQKPGKSPKTLMYRANRLVDGVPSRFSGSGSGQDYSLTISSLEYEDMGNYYCLQYDEFPYTFGGGAKLEIK
240

# return recorded Soluble trimeric huBAFF (50 pM) Neutralization IC90 for entry 1070A6B7 (antibody, V domains shown) VH: QVPLQQPGAEMVRPGASMRLSCKASGYTFPGYWMHWVKQRPRQGLEWIAKIDPSDSETHYNQNFKDKATLTVDKYSNTVYMQLNSLTSEDSAVYYCANEGWDSLTKVWFGWWGQGTLVTVSA VL: DVVMTQTPLSLPVSLGDQASISCRCSQSLVHSNGNTYLHWYLQKPGQSPKLLIYKVSDRFSGVPDRFSGSGSGTDFTLRISRVEADDLGVYFCSQSTHVPLTFGAGTKLELK
677

# return recorded Soluble trimeric huBAFF (50 pM) Neutralization IC90 for entry 440E9D12 (antibody, V domains shown) VH: QVRLRESGPGLVAPSQNLFITCTVSGFSLTDYEINWVRQPPGKNLEWLGVIWTGGGTKYNSVLISRLNISKDNSKRQVFFKMTSLQTDDTAIYYCVREGRRYYAMDYWGQGTSVTVSS VL: NIVLTQSPASLPVSLGQRATMSCRASKSVDSYGTSFMHWYQHRPGQPPKLLISLASNLESGVPGRFSGSGSRTDFTLTIDPVEPDDAATYYCQQNNEDPRTFGGGTTLEIK
259

# return recorded Soluble trimeric huBAFF (50 pM) Neutralization IC90 for entry 332C1B12 (antibody, V domains shown) VH: QVQLQQPGAELVKPGASVKLSCKASGYTFTNDNYWMNWMKQRPGRGLEWIGRIRPSDSETHYNQKFTNKATLTVDKSSSTAYIQLSSLTSVDSAVYYCARSWEDLLLRSMEDYFDYWGQGTTLTVSS VL: DIVLTQSPASLPVSLGQRATISCRASKGVSTSSYTFIHWYQQKPGQPPKLLIKYASNLESGVPARFSGSGSGTDFTLNIHPVEEEDVATYYCQHSREFPRTFGGGTKLEIK
457

# return recorded Soluble trimeric huBAFF (50 pM) Neutralization IC90 for entry 551H4D6 (antibody, V domains shown) VH: EVQLQQSGAELVRPGASVELSCTASGFNIKNDYLHWVKQRPEQGLEWIGWIDSANDKTKYAPKFQDKATITADPSSNTAYLQLSSLTSEDTAVYYCTRVGVQDGYYVRDFDYWGQGTTLTVSS VL: DIVLTQSPASLAVSLGQRATMSCRASESVDSYGNSFIHWYQQKPGQPPRLLIYRASNLNSGIPARFSGSGSRTDFTLTISSVEADDVATYYCHQNNEDPRTFGGGTKLEIK
257
